- Test system: MS2 coat protein
- METHOD NOTES: apparent KD of MS2 coat protein; higher = weaker reporter binding
- MEASUREMENT CONTEXT: Eterna round: R107; input ligand: arginine 13.2 mM
Recorded measurements of apparent KD of MS2 coat protein, one per entry
Enter your answer as a number in nM; do not include the unit.

Record excerpt, results attached:
>  <SEQUENCE DATA>
GCUUGGGUGGCCCAGCCCUGGCAGGGCGAUACCAGCCCGGUAACGGGCCCUUGGCAGCGCACAUGAGGAUCACCCAUGUGGUGCG [#1 Exclusion - Theophylline A Attempt #28 (HarryS)]

>  <ASSAY READOUT>
apparent KD of MS2 coat protein

>  <TEST VALUE>
22.4

$$$$
>  <SEQUENCE DATA>
AACAGACGAGACGAUACCAGUCUCUUAGCGCACAUGAGGAUCACCCAUGUUGGCAAGCUCGACCCUUGGCAGCGUACCUUUGAUC [theeternabot_sameState_MS2_Theo_B_6]

>  <ASSAY READOUT>
apparent KD of MS2 coat protein

>  <TEST VALUE>
23.8

$$$$

Consider now this further sequence.
INPUT: Request the reported apparent KD of MS2 coat protein associated with UGUAUGUGAUCUGAUACCAGUCCAACUGGUAAAACUUGAGGAUCACCCAGGUAAAAUUGGGACCCUUGGCAGCAGAUCGCAUACU
OUTPUT: 150
